- ASSAY_COMMENT: Mouse pharmacokinetics, blood and brain levels after IP dose
- Type: in vivo
- EXPERIMENTAL_PARAMETERS: female, NMRI, mouse, whole blood, ip, 10 mg/kg, blood, IP 10 mg/kg, mean of n = 3; read-out: AUC0-t (mean)
QUANTITY_MEASURED: AUC0-t (ng·h/mL)
The reply should be a number in ng·h/mL, with the unit left off.

stdin: Give reported AUC0-t value for CNS(=O)(=O)c1ccc(N/N=C2\C(=O)Nc3cccc(C=C(C)C)c32)cc1 [NEU-4391]
stdout: 37.7

----------
- ASSAY_COMMENT: Mouse pharmacokinetics, blood and brain levels after IP dose
- Format: in vivo
- EXPERIMENTAL_PARAMETERS: female, NMRI, mouse, whole blood, ip, 10 mg/kg, blood, IP 10 mg/kg; read-out: Cmax
QUANTITY_MEASURED: Cmax (nM)
The reply should be a number in nM, with the unit left off.

stdin: Give reported Cmax value for CNS(=O)(=O)c1ccc(N/N=C2\C(=O)Nc3cccc(C=C(C)C)c32)cc1
stdout: 130

----------
Reported Adult severity score (10 μM) by item:
- Test system: S. mansoni adults and somules
- ASSAY_COMMENT: S. mansoni phenotypic assay, adults and somules (severity score)
- Assay type: cell-based, Schistosoma mansoni (NMRI isolate)
- EXPERIMENTAL_PARAMETERS: adults, 24h, score 0-4
Answer using only a numeral; do not append any unit.

stdin: Give reported Adult severity score (10 μM) value for COc1ccc(N/N=C2\C(=O)Nc3ccccc32)cc1
stdout: 0

Further cases:
stdin: Give reported Adult severity score (10 μM) value for O=C1Nc2ccccc2C1=NNc1ccccc1 [NEU-2116, (Z)-3-(2-Phenylhydrazono)indolin-2-one]
stdout: 0

stdin: Give reported Adult severity score (10 μM) value for CN(C)S(=O)(=O)c1ccc(N/N=C2\C(=O)Nc3ccccc32)cc1
stdout: 3

stdin: Give reported Adult severity score (10 μM) value for CC(C)=Cc1cccc2c1C(=NNc1ccc(S(N)(=O)=O)cc1)C(=O)N2
stdout: 2

stdin: Give reported Adult severity score (10 μM) value for O=C1Nc2ccccc2/C1=N/Nc1cc(Cl)cc(Cl)c1
stdout: 0

stdin: Give reported Adult severity score (10 μM) value for CNS(=O)(=O)c1ccc(N/N=C2\C(=O)Nc3ccccc32)cc1
stdout: 2

----------
- System: T. b. brucei
- ASSAY_COMMENT: T. b. brucei growth inhibition EC50 assay (resazurin, 72 h)
- Type: cell-based, Trypanosoma brucei brucei Lister 427
- EXPERIMENTAL_PARAMETERS: Trypanosoma brucei; 72 h, resazurin; error within ±0.20 (Table 2) or ±0.08 (Table 3) log units; read-out: T.b.b. pEC50 (converted)
Reported EC50 by item:
The reply should be a number in nM, with the unit left off.

stdin: Give reported EC50 value for NS(=O)(=O)c1ccc(N/N=C2\C(=O)Nc3ccccc32)cc1
stdout: 1260

stdin: Give reported EC50 value for NS(=O)(=O)c1ccc(NN=C2C(=O)Nc3cc4c(cc32)NCC4)cc1
stdout: 794

Further cases:
stdin: Give reported EC50 value for CN(C)S(=O)(=O)c1ccc(N/N=C2\C(=O)Nc3ccccc32)cc1
stdout: 1580

stdin: Give reported EC50 value for CNS(=O)(=O)c1ccc(N/N=C2\C(=O)Nc3cccc(C=C(C)C)c32)cc1
stdout: 158

Where these numbers come from: paper PMC6383948
